# Test system: 5-HT4C
# EXPERIMENTAL_DETAILS: 5-HT4C receptor binding assay
# Parameters: species or system human
# CONDITION: 100 nM compound
VALUE_TYPE: % inhibition of control specific at 100 nM conc. (%)

SMILES_STR | MEASUREMENT_UNITS | ENDPOINT_VALUE
Cc1cccc(O[C@H]2CCNC[C@H]2O)c1C | % | 8

a. Cc1cccc(O[C@@H]2CCNC[C@@H]2O)c1C
b. Cc1cccc(O[C@@H]2CCNC[C@H]2O)c1C
c. Cc1cccc(O[C@H]2CCNC[C@@H]2O)c1C
// ranking: key=% inhibition of control specific at 100 nM conc., reverse=True I'd appreciate it if you listed the labels in the requested order.
a, c, b
